Reported IC50 by item:
target: Lytic switch protein BZLF1 (Epstein-Barr virus (strain B95-8)); experiment: Zta-DNA binding inhibition potency, late-stage follow-up, counter-screen for EBNA-1 inhibitor project, biochemical, fluorescence polarization, dose response, round 0 (AID 488998); settings: purified Zta–Cy5 ZRE DNA binding
Active and inactive are the calls of the source.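 How the source made its calls: active means IC50 at or below 10 µM; inactive means IC50 above 10 µM.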

Study these solved cases before continuing.
molecule | system-name | IC50
O=C(CSc1nnnn1-c1ccccc1)c1ccn(CC2CCCO2)c1 (stereo unspecified) | Lytic switch protein BZLF1 (Epstein-Barr virus (strain B95-8)) | > 111 µM (inactive)
COc1ccc(-n2nnnc2SCC(=O)c2cc(C)n(CC3CCCO3)c2C)cc1 (stereo unspecified) | Lytic switch protein BZLF1 (Epstein-Barr virus (strain B95-8)) | > 111 µM (inactive)
Cc1ccc(C(=O)Nc2nc3cc(Br)ccc3s2)cc1C | Lytic switch protein BZLF1 (Epstein-Barr virus (strain B95-8)) | > 111 µM (inactive)
CS(=O)(=O)c1ccc2nc(NC(=O)c3cccc(Cl)c3)sc2c1 | Lytic switch protein BZLF1 (Epstein-Barr virus (strain B95-8)) | > 111 µM (inactive)
Cc1ccc(C(=O)Nc2nc3ccc(S(C)(=O)=O)cc3s2)cc1 | Lytic switch protein BZLF1 (Epstein-Barr virus (strain B95-8)) | > 111 µM (inactive)

Specify the recorded IC50 for Cc1ccc(C(=O)Nc2nc3cc(F)ccc3s2)cc1C , system: Lytic switch protein BZLF1 (Epstein-Barr virus (strain B95-8)).
> 111 µM (inactive)

====

Listing: IC50 of selected molecules
molecular target: Lytic switch protein BZLF1 (Epstein-Barr virus (strain B95-8)) (UniProt P03206); assay: Zta-DNA binding inhibition potency, late-stage follow-up, counter-screen for EBNA-1 inhibitor project, biochemical, fluorescence polarization, dose response, round 0 (AID 488998); details: purified Zta–Cy5 ZRE DNA binding
Sequence (P03206 whole entry, looked up): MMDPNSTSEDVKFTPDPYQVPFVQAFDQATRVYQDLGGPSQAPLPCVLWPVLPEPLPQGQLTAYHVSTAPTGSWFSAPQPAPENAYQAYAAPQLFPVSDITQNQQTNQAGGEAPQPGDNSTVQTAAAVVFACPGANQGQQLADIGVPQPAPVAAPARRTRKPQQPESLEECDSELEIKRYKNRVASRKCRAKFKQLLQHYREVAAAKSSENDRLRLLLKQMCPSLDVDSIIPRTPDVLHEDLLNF
The source made the active and inactive calls.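 How the source made its calls: active means IC50 at or below 10 µM; inactive means IC50 above 10 µM.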

molecule | IC50
Cc1ccc(-n2nnnc2SCC(=O)c2cc(C)n(CC3CCCO3)c2C)cc1 (stereo not given) | > 111 µM (inactive)
CCn1c(C)cc(C(=O)CSc2nnnn2-c2ccccc2)c1C | > 111 µM (inactive)
Cc1cccc(-n2nnnc2SCC(=O)c2cc(C)n(CC3CCCO3)c2C)c1 (stereo not given) | > 111 µM (inactive)

// fetch IC50 for Cc1cc(C(=O)CSc2nnnn2C2CC2)c(C)n1CC1CCCO1 (stereo not given) ; system: Lytic switch protein BZLF1 (Epstein-Barr virus (strain B95-8)) (UniProt P03206)
> 111 µM (inactive)

Please report IC50 with Lytic switch protein BZLF1 (Epstein-Barr virus (strain B95-8)) (UniProt P03206) for item COc1ccc2nc(NC(=O)c3ccc(C)c(C)c3)sc2c1 .
> 111 µM (inactive)
